What GI50 was measured for each of the following?
Tested on: SF-295
Experiment: NCI tumour cell line growth inhibition, 48 h
Structures can show the parent of a compound that is named as a salt. The source made the active and inactive calls. Cut-off read from the data, not from the text of the source: active = GI50 up to about 1.1 µM and inactive = higher.

Challenge: Give its GI50 value. Item: C=CCOC(=O)Cn1cnc2c(N)ncnc21
Response given: > 100 µM (inactive)

Challenge: Give its GI50 value. Item: CC(=O)OCC(OC(C)=O)C(OC(C)=O)C(OC(C)=O)C(/C=N\Nc1nc2ccccc2c(=O)[nH]1)OC(C)=O (stereo unspecified)
Response given: > 100 µM (inactive)

Challenge: Give its GI50 value. Item: CCn1c(=O)c2c3ccc(OC)cc3[nH]c2c2ccc(OC)cc21
Response given: 67.1 µM (inactive)

Challenge: Give its GI50 value. Item: CCCCc1oc2ccccc2c1C(=O)c1cc(I)c(OCCN(CC)CC)c(I)c1 [AMIODARONE HYDROCHLORIDE]
Response given: 4.63 µM (inactive)

Challenge: Give its GI50 value. Item: COC(=O)c1cccc2c3ccccc3c3ccccc3c12
Response given: 26.6 µM (inactive)

Challenge: Give its GI50 value. Item: COC(C)(C)OCCN1CCN(CCN2C3=C(C=C(C(C)=O)C3)Sc3ccccc32)CC1
Response given: 19.5 µM (inactive)

Challenge: Give its GI50 value. Item: CCOC(=N)CC(=O)Nc1ccccc1
Response given: > 100 µM (inactive)

Challenge: Give its GI50 value. Item: Cc1cc2c(cc1C)[n+]([O-])c(C(=O)C/C(=N/OCCCc1ccccc1)C(=O)Nc1cc(Cl)ccc1Cl)c(C)[n+]2[O-]
Response given: > 100 µM (inactive)

Challenge: Give its GI50 value. Item: S=C1NCCN1
Response given: > 100 µM (inactive)

Challenge: Give its GI50 value. Item: NNC(=S)N/N=C(\CC1OC(=O)c2ccccc21)c1ccccc1O (stereo unspecified)
Response given: 20.3 µM (inactive)

Challenge: Give its GI50 value. Item: OC(c1ccc(-c2ccccc2)cc1)C(F)(F)c1nc2ccccc2o1 (stereo unspecified)
Response given: 96.4 µM (inactive)

Challenge: Give its GI50 value. Item: Cc1cn(C2C=CC(=O)C(C)O2)c(=O)[nH]c1=O (stereo unspecified)
Response given: 17.5 µM (inactive)

Challenge: Give its GI50 value. Item: O=[N+]([O-])c1ccc(S(=O)(=O)N=Ic2ccccc2)cc1
Response given: > 100 µM (inactive)

Challenge: Give its GI50 value. Item: Cc1cc(Br)cc(C)c1NC(=O)C(=O)CC(=O)c1sc(-n2nc(-c3ccccc3)cc2-c2ccccc2)nc1C
Response given: > 100 µM (inactive)

Challenge: Give its GI50 value. Item: CC(=O)OC1C/C(C)=C/CCC(C)/C=C/C2(C)CCC(C(C)(C)O)C12 (stereo unspecified)
Response given: 80.7 µM (inactive)

Challenge: Give its GI50 value. Item: Cc1ccc([N+](=O)[O-])cc1NC1=NCCO1
Response given: > 100 µM (inactive)
